# test.name: Toxicity liver stage against HepG2, at 10uM
# Assay type: cell-based
# Parameters: test concentration 10 uM, cell line HepG2-A16-CD81EGFP
# condition.notes: human, HepG2-A16-CD81EGFP cells; read-out: INHIBITION

>  <compound>
O=C1NCCN2CCN(C(=O)Nc3ccc(-c4ccccc4)cc3)CC12 (centres undefined)

>  <u>
%

>  <cytotoxicity at 10 µM>
-119

$$$$
>  <compound>
CCn1ncc2c1CCCC2NCc1cc(OC)cc(OC)c1 (centres undefined)

>  <u>
%

>  <cytotoxicity at 10 µM>
3.24

$$$$
>  <compound>
N#Cc1ccc(CNC(=O)NCCNC(=O)C2CCCC2)c(F)c1

>  <u>
%

>  <cytotoxicity at 10 µM>
4.17

$$$$
>  <compound>
CC(=O)NC1CCN(c2nc(C)nc3c2c(C)nn3C)C1 (centres undefined)

>  <u>
%

>  <cytotoxicity at 10 µM>
8.32

$$$$
